assay: Acute Toxicity in Mice; details: mouse, in vivo, po
experimentalReadout: LD50 at 48 h

As a guide, the following entries are already answered.
> print(dat)
                            molecularstring  experimentalreadout        result
1  Cl.O=C(CCCN1CCC(O)(C(=O)c2ccc(F)cc2)CC1)c1ccc(F)cc1         LD50 at 48 h     500 mg/kg
2  Cc1ccc(C(=O)C2(O)CCN(CCCC(=O)c3ccc(F)cc3)CC2)cc1         LD50 at 48 h  > 1000 mg/kg
3  O=C(CCCN1CCC(O)(C(=O)c2ccc(Cl)cc2)CC1)c1ccc(F)cc1         LD50 at 48 h     630 mg/kg

Below: the item to evaluate.
Reported LD50 at 48 h for COc1ccc(C(=O)C2(O)CCN(CCCC(=O)c3ccc(F)cc3)CC2)cc1 was 890 mg/kg
